Tested on: ovarian cancer cells with (OVCAR8, OVCAR4) or without (OVSAHO, CAOV3) MYC-HSF1 amplification
test protocol: Epigenetic inhibitor drug screen, cell viability (Cell Titer Blue)
Format: cell-based
test context: 10 uM, 48 hrs; average relative cell viability (vs 1% DMSO) of non-amplified cells (OVSAHO, CAOV3) minus that of MYC-HSF1 amplified cells (OVCAR8, OVCAR4); positive = greater response in amplified cells
Where a name gives a salt, the structure may show the parent alone.
Entries and their measured Non Amp - AMP (POC) 10 uM follow.
recorded metric: Non Amp - AMP (POC) 10 uM

INSERT INTO assay_data (compound, unit_name, observed_measurement) VALUES
  ('COc1ccc(-n2c(SCCCN3C(=O)c4cccc5cccc(c45)C3=O)nnc2-c2ccncc2)cc1 [WIKI4]', 'POC', 10.07),
  ('O=C(/C=C/c1cccc(S(=O)(=O)Nc2ccccc2)c1)NO [Belinostat (PXD101), Belinostat]', 'POC', 12.55),
  ('O=C(NO)c1cccc(C(=O)NCCc2ccccc2)c1 [BRD73954]', 'POC', 10.33),
  ('c1ccc([C@@H]2C[C@H]2NC2CCNCC2)cc1 [GSK-LSD1 (hydrochloride)]', 'POC', 14.88),
  ('COc1nnc2ccc(N3CCC(c4ccc(OCCN5CCN(C)C(=O)[C@H]5C)cc4)CC3)nn12 [AZD 5153]', 'POC', 11.52),
  ('O=C1NC(=O)/C(=C/c2cccc(C(F)(F)F)c2)S1 [SMI-4a]', 'POC', '−1.184'),
  ('CO[C@@H]1[C@H](N(C)C(=O)c2ccccc2)C[C@H]2O[C@]1(C)n1c3ccccc3c3c4c(c5c6ccccc6n2c5c31)C(=O)NC4 [Midostaurin (PKC412), Midostaurin]', 'POC', '−9.891'),
  ('O=C(CCCCCCNC(=O)c1cnc(N(c2ccccc2)c2ccccc2Cl)nc1)NO [ACY-241]', 'POC', 35.17),
  ('C[C@@H]1CC[C@@]2(OC1)O[C@H]1C[C@H]3[C@@H]4CC=C5C[C@@H](O)CC[C@]5(C)[C@H]4CC[C@]3(C)[C@H]1[C@@H]2C [Diosgenin]', 'POC', 5.646),
  ('CN1CCc2c(c3ccccc3n2Cc2ccc(C(=O)NO)cc2)C1 [Tubastatin A]', 'POC', 15.75),
  ('Cc1nn(C)cc1CN1CCC(c2ccc(C(=O)Nc3ccccc3N)cc2)CC1 [CXD101]', 'POC', 83.35);

====

Tested on: ovarian cancer cells with (OVCAR8, OVCAR4) or without (OVSAHO, CAOV3) MYC-HSF1 amplification
test protocol: Epigenetic inhibitor drug screen, cell viability (Cell Titer Blue)
Assay type: cell-based
test context: 10 uM, 48 hrs; average relative cell viability (vs 1% DMSO) of non-amplified cells (OVSAHO, CAOV3) minus that of MYC-HSF1 amplified cells (OVCAR8, OVCAR4); positive = greater response in amplified cells
Structures can show the parent of a compound that is named as a salt.
Entries and their measured Non Amp - AMP (POC) 10 uM follow.
recorded metric: Non Amp - AMP (POC) 10 uM

INSERT INTO assay_data (molecule, unit_name, observed_measurement) VALUES
  ('COc1cc(C(=O)N2CC[C@@H](O)[C@@H](N)C2)cc2nc(-c3cc4ccccc4n3CC3CC3)n(C)c12.Cl [GSK484 (hydrochloride)]', 'POC', 0.3153),
  ('Cc1cc(CN2CCN(c3c(Br)cnc4nc(-c5ccc(N6CCN(C)CC6)cc5)[nH]c34)CC2)no1', 'POC', 9.076),
  ('CN(C)CCCCC(=O)Nc1ccc(NC(=S)NC(=O)c2ccc(C(C)(C)C)cc2)cc1.Cl [Tenovin-6 (hydrochloride), Tenovin-6]', 'POC', '−3.503'),
  ('N#Cc1c(O)c2c(-c3ccc(-c4ccccc4O)cc3)csc2[nH]c1=O', 'POC', '−2.694'),
  ('CC(C)c1cccc(=O)c(O)c1', 'POC', '−6.718'),
  ('COc1cc(-c2cn(C)c(=O)c3cnccc23)cc(OC)c1CN(C)C', 'POC', '−8.336'),
  ('CN1CCc2c(c3ccccc3n2Cc2ccc(C(=O)NO)cc2)C1.Cl [Tubastatin A HCl]', 'POC', 19.35),
  ('CCN(CC)Cc1cc(Nc2ccnc3cc(Cl)ccc23)ccc1O [Amodiaquine dihydrochloride dihydrate]', 'POC', '−0.1196'),
  ('O=S(=O)(NCCSSCCNS(=O)(=O)c1cc(Cl)ccc1Cl)c1cc(Cl)ccc1Cl', 'POC', '−3.553'),
  ('CN1C/C=C/CCOc2cccc(c2)-c2ccnc(n2)Nc2cccc(c2)C1', 'POC', 5.059),
  ('Cc1nc(Nc2cnn(C3CCNCC3)c2)nc2c1N(C)C(=O)c1cc3ccccc3cc1N2C', 'POC', '−3.924');

The origin of these recorded values is patent US20250011881A1.
